Values compiled from the RNAGym collection of RNA variant scans (doi:10.1002/anie.201605470).

B1: Osa-1-4 twister ribozyme (parent)
chain: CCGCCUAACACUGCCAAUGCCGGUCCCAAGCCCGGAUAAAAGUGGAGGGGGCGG

Variants of: B1
measurement_protocol: self-cleavage, relative activity (ratio to wild type); higher = more cleavage; co-transcriptional
// reported self-cleavage for each item listed
Provide a numeric answer; units are not to be included.

>  <item_sequence>
CCGCCUAACACUACCAAUGACGGUCCCAAGCCCGGAUAAAAGUGGAGGGGGCGG

>  <readout_value>
0.13

$$$$
>  <item_sequence>
CCGCCUAACACUGCCAAUGCCGGUCCCAAGCCCGGAUAAAAAUGGAGGGGCCGG

>  <readout_value>
0.06

$$$$
>  <item_sequence>
CCGCCUAACACUGCCACUGCCGGUCCCAAGCCCGGAUUAAAGUGGAGGGGGCGG

>  <readout_value>
0.66

$$$$

self-cleavage recorded for this variant, `CCGCCUAACACUGCCAAUGCCGGUCCCAAGCCCGGAUAAAAGUGGAGGGCGGGG` , is 0.09

self-cleavage recorded for this variant, `CCGCCUAACACUGCCAAUGCCGGUCCCAAGCCCGGAAAAAAGUGGAGGGGGCGA` , is 0.73

self-cleavage recorded for this variant, `CCGCCUAACACUGCCAAUGCCGGUCCCAGGCCCGGAUAAAAGUGGAGCGGGCGG` , is 0.04

self-cleavage recorded for this variant, `CCGCCUAACACUGUCAAUGCCGGUCCCAAGCCCGGAUAGAAGUGGAGGGGGCGG` , is 0.11

self-cleavage recorded for this variant, `CCGCCUAACACUACCAAUGCCGGUCCCAAGCCCGGAUGAAAGUGGAGGGGGCGG` , is 0.12

self-cleavage recorded for this variant, `CCGCCUAACACUGCCAAUGCCGGUCCCAAGCCCGAAUAAAAGUGGAAGGGGCGG` , is 0.27

self-cleavage recorded for this variant, `CCGCCUAACACUGCCCAUGCCGGUCCCAAGCCCGGAUAAAAGUGGAGAGGGCGG` , is 0.06

self-cleavage recorded for this variant, `CCGCCUAACACUGCCAAUACCGGUCCCAAGCCCGGAUAAAAGUGGAGGGGGCAG` , is 0.18

self-cleavage recorded for this variant, `CCGCCUAACACUGCCAAUGCCGGUCCCAAGCCCGGACAAAAGUGGAGGGGGCCG` , is 0.11

self-cleavage recorded for this variant, `CCGCCUAACACUGCCAAUGCCGAUCCCAAGCACGGAUAAAAGUGGAGGGGGCGG` , is 0.17

self-cleavage recorded for this variant, `CCGCCUAACACUGCCAACGCCGGUCCCAAGACCGGAUAAAAGUGGAGGGGGCGG` , is 0.04

self-cleavage recorded for this variant, `CCGCCUAACACUGCCAAUGCCGGUUCCAAGCACGGAUAAAAGUGGAGGGGGCGG` , is 0.06

self-cleavage recorded for this variant, `CCGCCUAUCACUGCCAAUGCCGGUCCCAAGCCCGGAUAAAAGUGGAGGAGGCGG` , is 0.05

self-cleavage recorded for this variant, `CCGCCUAACACUGCCAAUGCCGGUCCCAAGCCCGGAUACAAGUGCAGGGGGCGG` , is 0.05

self-cleavage recorded for this variant, `CCGCCUAACAGUGCCAAUGCCGGUCCCAAGCCCGGAUAAUAGUGGAGGGGGCGG` , is 0.06

self-cleavage recorded for this variant, `CCGCCUAACACUGCCAAUGCCGGUCCCAAGGCCGGAUAAAAGUGGAGGAGGCGG` , is 0.05

self-cleavage recorded for this variant, `CCGCCUAACACUGCCAAUGUGGGUCCCAAGCCCGGAUAAAAGUGGAGGGGGCGG` , is 0.26

self-cleavage recorded for this variant, `CCGCCUAACUCUGCAAAUGCCGGUCCCAAGCCCGGAUAAAAGUGGAGGGGGCGG` , is 0.03

self-cleavage recorded for this variant, `CCGCCUAACACUGCCAAUGCCGGUCCCAACCCCGGAUAAAAGUGGAGGUGGCGG` , is 0.02

self-cleavage recorded for this variant, `CCGCCUAACACUGCCAAUGCCGGUCCCAAGCCCGGAUAGAAGUAGAGGGGGCGG` , is 0.85
